details: in diisopropyl ether, 298.15 K
Endpoint: solubility (mole fraction)

>  <Smiles structure>
O=C(O)c1ccc(Cl)c(Cl)c1

>  <Test value>
0.0126

$$$$

====

conditions: in THF, 298.15 K
Endpoint: solubility (mole fraction)

>  <Smiles structure>
O=C(O)c1ccc(Cl)c(Cl)c1

>  <Test value>
0.101

$$$$

====

settings: in n-propyl acetate, 298.15 K

>  <Smiles structure>
O=C(O)c1ccc(Cl)c(Cl)c1

>  <solubility (mole fraction)>
0.0176

$$$$

====

conditions: in 2-ethoxyethanol, 298.15 K
Endpoint: solubility (mole fraction)

>  <Smiles structure>
O=C(O)c1ccc(Cl)c(Cl)c1

>  <Test value>
0.0445

$$$$

====

settings: in n-propanol, 298.15 K

>  <Smiles structure>
O=C(O)c1ccc(Cl)c(Cl)c1

>  <solubility (mole fraction)>
0.0185

$$$$

====

conditions: in n-octanol, 298.15 K

>  <Smiles structure>
O=C(O)c1ccc(Cl)c(Cl)c1

>  <solubility (mole fraction)>
0.0242

$$$$

====

details: in dibutyl ether, 298.15 K

>  <Smiles structure>
O=C(O)c1ccc(Cl)c(Cl)c1

>  <solubility (mole fraction)>
0.00969

$$$$

====

settings: in methyl acetate, 298.15 K

>  <Smiles structure>
O=C(O)c1ccc(Cl)c(Cl)c1

>  <solubility (mole fraction)>
0.0119

$$$$

====

settings: in ethyl acetate, 298.15 K
Endpoint: solubility (mole fraction)

>  <Smiles structure>
O=C(O)c1ccc(Cl)c(Cl)c1

>  <Endpoint>
solubility (mole fraction)

>  <Test value>
0.0164

$$$$

====

details: in isopentanol, 298.15 K
Endpoint: solubility (mole fraction)

>  <Smiles structure>
O=C(O)c1ccc(Cl)c(Cl)c1

>  <Endpoint>
solubility (mole fraction)

>  <Test value>
0.0216

$$$$

====

conditions: in 2-propoxyethanol, 298.15 K
Endpoint: solubility (mole fraction)

>  <Smiles structure>
O=C(O)c1ccc(Cl)c(Cl)c1

>  <Endpoint>
solubility (mole fraction)

>  <Test value>
0.0468

$$$$

====

conditions: in 2-isopropoxyethanol, 298.15 K
Endpoint: solubility (mole fraction)

>  <Smiles structure>
O=C(O)c1ccc(Cl)c(Cl)c1

>  <Test value>
0.0483

$$$$

====

details: in n-heptanol, 298.15 K
Endpoint: solubility (mole fraction)

>  <Smiles structure>
O=C(O)c1ccc(Cl)c(Cl)c1

>  <Test value>
0.0251

$$$$

====

details: in n-pentyl acetate, 298.15 K

>  <Smiles structure>
O=C(O)c1ccc(Cl)c(Cl)c1

>  <solubility (mole fraction)>
0.0216

$$$$

====

details: in tert-butanol, 298.15 K
Endpoint: solubility (mole fraction)

>  <Smiles structure>
O=C(O)c1ccc(Cl)c(Cl)c1

>  <Endpoint>
solubility (mole fraction)

>  <Test value>
0.0345

$$$$

====

conditions: in 4-methyl-2-pentanol, 298.15 K
Endpoint: solubility (mole fraction)

>  <Smiles structure>
O=C(O)c1ccc(Cl)c(Cl)c1

>  <Test value>
0.0255

$$$$

====

details: in 2-pentanol, 298.15 K
Endpoint: solubility (mole fraction)

>  <Smiles structure>
O=C(O)c1ccc(Cl)c(Cl)c1

>  <Test value>
0.0248

$$$$

====

conditions: in MTBE, 298.15 K
Endpoint: solubility (mole fraction)

>  <Smiles structure>
O=C(O)c1ccc(Cl)c(Cl)c1

>  <Endpoint>
solubility (mole fraction)

>  <Test value>
0.0358

$$$$
